The reported numbers originate from patent US20170067045A1.

- TARGET: T1, MDM2 (res 2-125) (UniProt Q00987 2-125)
- T1 construct: range 2-125; Titrant in the fluorescence anisotropy experiments
- T1 sequence (Q00987 2-125 limits assumed): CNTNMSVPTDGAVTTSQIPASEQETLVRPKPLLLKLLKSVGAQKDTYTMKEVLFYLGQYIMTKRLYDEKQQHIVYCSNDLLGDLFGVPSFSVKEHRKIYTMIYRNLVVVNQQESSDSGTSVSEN
- ASSAY OVERVIEW: fluorescence anisotropy titration, excitation 295 nm, 23 C, PBS, 5 mM DTT
*1 amine or outer side, *2 acyl side, *3 side chain or, on linkers, in order; H or OH if unused. Bridges are numbered along the chain shown (N, C = ends). TBMB = c1c(C[*:1])cc(C[*:3])cc1C[*:2]
Here the recorded pKd is given for each entry.
Recall that pKd is obtained by taking minus log10 of the concentration measured in molar.

{"BINDER": "H-SCVRFGWTCDNSWHGCKG-OH (linker 2-9-16 via TBMB, The anisotropy paragraph says only 'peptides 10, 48'; also called peptide 48) [PEP48 synthetic peptide conjugated with TBMB]", "READOUT VALUE": 6.25}

Now turn to the next binder.
// query May I ask what pKd has been recorded for H-SCELWNPKCRLSPFECKG-OH (linker 2-9-16 via TBMB, The anisotropy paragraph says only 'peptides 10, 48'; also called peptide 10) [PEP10 synthetic peptide conjugated with TBMB] ?
// result 6.57
